Each recorded value in this set is attributed to PubChem BioAssay (EPA / NIEHS).

# Read-out: Thrombomodulin, THBD (gene 7056)
# PROCEDURE DETAILS: BSK_CASM3C_Thrombomodulin: BioMAP Diversity Plus: CASM3C Assay for Thrombomodulin Biomarker Activity (AID 2283051);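 also: thrombomodulin protein level measured by ELISA 24 h after dosing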
# CONDITION SET: primary human coronary artery smooth muscle cells; actives raise or lower the signal
Calls of active or inactive are those of the source. The calls were made as follows: active = hit-call score of the fitted dose curve at least 0.9, where 1 is the maximum; inactive = score below 0.9.
I would appreciate it if you answered using one of these outcomes: t = active, f = inactive

1) COP(=S)(OC)Oc1c(Cl)cc(C)cc1Cl = f
2) CCC(C)(C)c1ccc(O)c(C(C)(C)CC)c1 = t

QUERY: Call for entry COC(=O)c1sccc1S(=O)(=O)NC(=O)Nc1nc(C)nc(OC)n1 :
RESULT: f

QUERY: Call for entry O=C(O)C(F)(F)C(F)(F)C(F)(F)C(F)(F)C(F)(F)C(F)(F)F :
RESULT: f

QUERY: Call for entry CN(C)N=O :
RESULT: f

QUERY: Call for entry Nc1ccc(-c2ccc(N)c(Cl)c2)cc1Cl :
RESULT: f

QUERY: Call for entry C=C(C)C(=O)[O][Sn]([CH2]CCC)([CH2]CCC)[CH2]CCC :
RESULT: t

QUERY: Call for entry CC(C)(c1ccccc1)c1ccc(O)c(C(C)(C)c2ccccc2)c1 :
RESULT: t

QUERY: Call for entry COc1cc(-c2ccc(N)c(OC)c2)ccc1N :
RESULT: f

QUERY: Call for entry CCOP(=S)(OCC)Oc1ccc(S(C)=O)cc1 (stereo not drawn) :
RESULT: f

QUERY: Call for entry Cc1ccccc1N :
RESULT: f

QUERY: Call for entry Oc1c(I)cc(I)cc1I :
RESULT: f

QUERY: Call for entry NC(=O)O :
RESULT: f

QUERY: Call for entry C(=NC1CCCCC1)=NC1CCCCC1 :
RESULT: t

QUERY: Call for entry CC(C)(OO)c1ccccc1 :
RESULT: f

---

# Read-out: Vascular cell adhesion molecule 1 (VCAM1), VCAM1 (gene 7412)
# PROCEDURE DETAILS: BSK_LPS_VCAM1: BioMAP Diversity Plus: LPS Assay for Vascular cell adhesion molecule 1 (VCAM1) Biomarker Activity (AID 2283086)
# CONDITION SET: primary human HUVEC with PBMC; actives raise or lower the signal
# Procedure: BSK_LPS is a cell-based, multiplexed-readout assay that uses umbilical vein endothelium and peripheral blood mononuclear cells, a human vascular primary cell co-culture, with measurements taken at 24 hours after chemical dosing in a 96-well plate.BSK_LPS_VCAM1 is an assay component measured in the BSK_LPS assay. It measures VCAM-1 antibody related to regulation of gene expression using ELISA technology.Data from the assay component BSK_LPS_VCAM1 was analyzed into 1 assay endpoint. […]
Active and inactive are the calls of the source. The calls were made as follows: active = hit-call score of the fitted dose curve at least 0.9, where 1 is the maximum; inactive = score below 0.9.
I would appreciate it if you answered using one of these outcomes: T for active, F for inactive

1. OCc1ccco1 = F

QUERY: Call for entry CC(C)c1ccc(CO)cc1 :
RESULT: F

QUERY: Call for entry COP(=S)(OC)Oc1ccc(S(=O)(=O)N(C)C)cc1 :
RESULT: F

---

# MEASUREMENT TARGET: Estrogen receptor (Homo sapiens)
# PROCEDURE DETAILS: OT_ER_ERaERa_1440: Odyssey Thera (OT) 24-hour HEK293T Protein-Complementation Assay for Estrogen Receptor-alpha/-alpha Homodimer (AID 2283349);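 also: hits raise fluorescence above DMSO for agonists and antagonists alike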
Active and inactive are the calls of the source. The calls were made as follows: active = hit-call score of the fitted dose curve at least 0.9, where 1 is the maximum; inconclusive = response in the unintended direction; inactive = score below 0.9.
I would appreciate it if you answered using one of these outcomes: active, inactive

Use these answered entries as a reference point.
1) C1CCC(NC2CCCCC2)CC1 = inactive
2) Cl/C=C\C[N+]12CN3CN(CN(C3)C1)C2 = inactive
3) CCCCCCCCSC(=O)Oc1cc(Cl)nnc1-c1ccccc1 = inactive
4) C[C@H]1CCCC(=O)CCC/C=C/c2cc(O)cc(O)c2C(=O)O1 = active
5) CCOP(=S)(OCC)SCSP(=S)(OCC)OCC = inactive

QUERY: Call for entry COc1ccc(C=O)cc1OC :
RESULT: inactive

QUERY: Call for entry COP(=S)(OC)Oc1ccc(Sc2ccc(OP(=S)(OC)OC)cc2)cc1 :
RESULT: inactive

QUERY: Call for entry CCC(C)(C)c1ccc(O)c(C(C)(C)CC)c1 :
RESULT: inactive

QUERY: Call for entry c1cc[c]([Hg][c]2ccccc2)cc1 :
RESULT: inactive

QUERY: Call for entry ClC1(Cl)C2(Cl)C3(Cl)C4(Cl)C(Cl)(Cl)C5(Cl)C3(Cl)C1(Cl)C5(Cl)C24Cl (stereo unspecified) :
RESULT: inactive

QUERY: Call for entry CC(C)C1CCC(Cc2ccc(Cl)cc2)C1(O)Cn1cncn1 (stereo unspecified) :
RESULT: inactive

QUERY: Call for entry CC1(C)Cc2cccc(O)c2O1 :
RESULT: inactive

QUERY: Call for entry CC(C)(c1ccccc1)c1ccc(O)c(C(C)(C)c2ccccc2)c1 :
RESULT: inactive

QUERY: Call for entry Cn1sc(Cl)cc1=O :
RESULT: inactive

QUERY: Call for entry COc1cc(OC)nc(NC(=O)NS(=O)(=O)c2ncccc2C(=O)N(C)C)n1 :
RESULT: inactive

QUERY: Call for entry O=C/C=C/c1ccccc1 :
RESULT: inactive

QUERY: Call for entry O=C1C(Cl)=C(Cl)C(=O)c2ccccc21 :
RESULT: active

QUERY: Call for entry COP(=O)(OC)O/C(=C\Cl)c1cc(Cl)c(Cl)cc1Cl :
RESULT: inactive

QUERY: Call for entry BrCCBr :
RESULT: inactive

QUERY: Call for entry COP(=O)(OC)OC :
RESULT: inactive

QUERY: Call for entry CC(=O)c1cc(C(C)(C)C)cc2c1CCC2(C)C :
RESULT: inactive
